The reported measurements were obtained from the supplement of paper PMC12340641.

Please go through the items and note down their inhibition of IKZF1 HTRF signal.
# tested on: IKZF1 (dCK*-IKZF1 fusion in HEK293FT) (UniProt Q13422)
# Sequence (Q13422 whole entry, looked up, the tested form may be a part): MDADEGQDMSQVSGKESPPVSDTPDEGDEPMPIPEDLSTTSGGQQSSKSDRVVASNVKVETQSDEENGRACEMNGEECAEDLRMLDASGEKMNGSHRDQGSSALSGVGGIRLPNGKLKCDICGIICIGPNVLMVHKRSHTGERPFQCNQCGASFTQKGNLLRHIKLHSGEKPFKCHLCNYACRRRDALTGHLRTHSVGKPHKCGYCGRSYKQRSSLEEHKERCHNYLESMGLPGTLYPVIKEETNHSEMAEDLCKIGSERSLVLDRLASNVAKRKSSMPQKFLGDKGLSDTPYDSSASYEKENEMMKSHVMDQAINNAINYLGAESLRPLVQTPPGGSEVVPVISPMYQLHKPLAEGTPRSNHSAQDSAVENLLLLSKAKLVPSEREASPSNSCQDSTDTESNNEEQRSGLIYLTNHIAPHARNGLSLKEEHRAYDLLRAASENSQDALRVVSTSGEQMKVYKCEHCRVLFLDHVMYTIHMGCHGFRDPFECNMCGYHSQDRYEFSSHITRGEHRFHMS
# test description: inhibition of IKZF1 HTRF signal (DMSO = 0%, pomalidomide 10 uM = 100%); higher = lower IKZF1 protein level
# condition context: compound concentration: 5 uM, overnight (~20 h)
Numbers only, in %.

> print(dat)
                                   compound                                 tested.on                 measurement.name  units  experimental.result
1  Clc1ccc(CSC(Cn2ccnc2)c2ccc(Cl)cc2Cl)cc1 (stereo not given) [Sulconazole Nitrate]  IKZF1 (dCK*-IKZF1 fusion in HEK293FT) (UniProt Q13422)  inhibition of IKZF1 HTRF signal      %                -32.3

I have 3 compounds here; please give me inhibition of IKZF1 HTRF signal for each one.
1. CO[C@H]1O[C@@H]2O[C@@]3(C)CC[C@H]4[C@H](C)CC[C@@H]([C@H]1C)[C@@]24OO3
2. CCN(CC)CCCC(C)Nc1nc(C)cc(Nc2ccc3nc(C)cc(N)c3c2)n1 (stereo not given)
3. C=CCc1ccc(O)c(-c2cc(CC=C)ccc2O)c1

1. -2.04
2. -45.1
3. -27.1

Specify inhibition of IKZF1 HTRF signal for CC(=C\c1ccc(Cl)cc1)/C(C)=N/O and stop.
-25.6

----------
# tested on: IKZF1 (dCK*-IKZF1 fusion in HEK293FT)
# test description: inhibition of IKZF1 HTRF signal (DMSO = 0%, pomalidomide 10 uM = 100%); higher = lower IKZF1 protein level
# condition context: compound concentration: 5 uM, overnight (~20 h)
Structures can show the parent of a compound that is named as a salt.
measurement name: inhibition of IKZF1 HTRF signal (%)
Numbers only, in %.

compound	units	experimental result
CN1CCCC1CCOC(C)(c1ccccc1)c1ccc(Cl)cc1 (stereo not given) [Clemastine fumarate]	%	11
CC1=C(/C=C/C(C)=C/C=C/C(C)=C/C(=O)Nc2ccc(O)cc2)C(C)(C)CCC1 [Fenretinide]	%	-30.4
Cc1coc2c1C(=O)C(=O)c1c-2ccc2c(C)cccc12	%	-2.3
CO[C@H]1CC[C@H](N2C(=O)CNc3ncc(-c4ccc(C(C)(C)O)nc4)nc32)CC1	%	-19.1
CCC(=O)O[C@@H]1CC(=O)O[C@H](C)C/C=C/C=C/[C@H](OC(C)=O)[C@H](C)C[C@H](CC=O)[C@H](O[C@@H]2O[C@H](C)[C@@H](O[C@H]3C[C@@](C)(OC(C)=O)[C@@H](OC(=O)CC)[C@H](C)O3)[C@H](N(C)C)[C@H]2O)[C@H]1OC [Midecamycin Acetate]	%	-24.1
C[C@@H]1CC2C3CCC4=CC(=O)C=C[C@]4(C)[C@@]3(F)[C@@H](O)C[C@]2(C)[C@H]1C(=O)CO (stereo not given in full)	%	19.4

I have 5 compounds here; please give me inhibition of IKZF1 HTRF signal for each one.
1. C=C1C(=O)O[C@@H]2C[C@@]3(C)CCC[C@H](C)C3=C[C@H]12
2. CCN(CC)CCCCC(NC(=O)c1ccc([N+](=O)[O-])cc1)c1ccccc1 (stereo not given)
3. CC(C)(C)C1CCc2c(sc(NC(=O)c3ccco3)c2C(=O)O)C1 (stereo not given)
4. CN1C(=O)CC(C)(c2ccccc2)C1=O (stereo not given)
5. Nc1nc(N)c2nc(-c3ccccc3)c(N)nc2n1

1. -31.2
2. -51.4
3. -23.8
4. 19.8
5. 3.18

I have 7 compounds here; please give me inhibition of IKZF1 HTRF signal for each one.
1. CCOc1ccc2nc3cc(N)ccc3c(N)c2c1
2. COCCOC(=O)C1=C(C)NC(C)=C(C(=O)OC(C)C)C1c1cccc([N+](=O)[O-])c1 (stereo not given)
3. CN1CCN(CCCN2c3ccccc3Sc3ccc(Cl)cc32)CC1
4. CCCCCCCC[N+](C)(C)Cc1ccccc1
5. COc1cc([C@@H]2c3cc4c(cc3[C@@H](O[C@@H]3O[C@@H]5CO[C@@H](C)O[C@H]5[C@H](O)[C@H]3O)[C@H]3COC(=O)[C@H]23)OCO4)cc(OC)c1O [Etoposide]
6. CC(C)n1nc(-c2ccc3oc(N)nc3c2)c2c(N)ncnc21
7. OCCN1CCN(CCCN2c3ccccc3Sc3ccc(Cl)cc32)CC1

-16.3
-29.4
-26.7
-57.3
-29.2
83.3
-36.5

I have 4 compounds here; please give me inhibition of IKZF1 HTRF signal for each one.
1. CCCCOC(=O)c1ccc(N)cc1
2. Nc1ccc(S(=O)(=O)Nc2ncccn2)cc1
3. CC[N+](CC)(CC)CC(=O)Nc1c(C)cccc1C
4. CN1CCN(C2=Nc3ccccc3Sc3ccc(Cl)cc32)CC1

1: -30.3; 2: -27.2; 3: -32.9; 4: 23.7

I have 5 compounds here; please give me inhibition of IKZF1 HTRF signal for each one.
1. Nc1nc(N)c2nc(-c3cccc(O)c3)cnc2n1
2. Oc1c(Cl)cc(Cl)c(Cl)c1Cc1c(O)c(Cl)cc(Cl)c1Cl
3. Nc1cccc2c1C(=O)N(C1CCC(=O)NC1=O)C2=O (stereo not given) [Pomalidomide]
4. CN1CCC[C@@H]1CCO[C@](C)(c1ccccc1)c1ccc(Cl)cc1 [Clemastine Fumarate]
5. C/C=C(/C(=C/C)c1ccc(O)cc1)c1ccc(O)cc1

28.6
-36
92.7
6.24
-24

I have 4 compounds here; please give me inhibition of IKZF1 HTRF signal for each one.
1. Cc1cc(Nc2ncc(Cl)c(Nc3ccccc3S(=O)(=O)C(C)C)n2)c(OC(C)C)cc1C1CCN(CC(=O)NCCOCCOCCOCCOCCOCCNc2cccc3c2C(=O)N(C2CCC(=O)NC2=O)C3=O)CC1 (stereo not given)
2. COC(=O)Nc1nc2cc(C(=O)c3cccs3)ccc2[nH]1
3. CC[C@@]1(O)C(=O)OCc2c1cc1n(c2=O)Cc2cc3c(CN(C)C)c(O)ccc3nc2-1 [Topotecan (Hydrochloride)]
4. CSCC[C@H](N)C(=O)O

54.5
-12
1.64
-9.26

I have 3 compounds here; please give me inhibition of IKZF1 HTRF signal for each one.
1. CN(C)CCC=C1c2ccccc2CCc2ccccc21 [Amitriptyline HCl]
2. c1ccc(C2(c3ccccc3)CC2=C2NCCN2)cc1
3. C/C(=C\c1csc(C)n1)[C@@H]1C[C@@H]2O[C@]2(C)CCC[C@H](C)[C@H](O)[C@@H](C)C(=O)C(C)(C)[C@@H](O)CC(=O)N1 [Ixabepilone]

1: 22.6; 2: -50; 3: -13.2

Specify inhibition of IKZF1 HTRF signal for O=C1[C@H]2CCCC[C@H]2C(=O)N1CCCCN1CCN(c2nsc3ccccc23)CC1 and stop.
16.4

----------
# tested on: IKZF1 (dCK*-IKZF1 fusion in HEK293FT) (UniProt Q13422)
# test description: inhibition of IKZF1 HTRF signal (DMSO = 0%, pomalidomide 10 uM = 100%); higher = lower IKZF1 protein level
# condition context: compound concentration: 5 uM, overnight (~20 h)
Structures can show the parent of a compound that is named as a salt.
measurement name: inhibition of IKZF1 HTRF signal (%)
Answers are plain numbers, in %.

Please review the entries below; each comes with its answer.
> print(dat)
                                   molecule  experimental.result
1  C=C1C(=O)O[C@H]2[C@H]1CC/C(C)=C\CC[C@@]1(C)O[C@@H]21 [Parthenolide ((-)-Parthenolide)]                -18.3
2               Nc1ccc(/N=N/c2ccccc2)c(N)n1                -28.9
3                CCN(CC)C(=S)SSC(=S)N(CC)CC                -34.2

I have 5 molecules here; please give me inhibition of IKZF1 HTRF signal for each one.
1. ClC1=CC=CC(NC2=C3C(N(C(C)C)C=N3)=NC(N[C@H]([C@@H](C)C)CO)=N2)=C1 [purvalanol-a]
2. c1ccc2c(c1)CCC[C@H]2Nc1nc2ccccc2[nH]1
3. Cc1nc(Nc2ncc(C(=O)Nc3c(C)cccc3Cl)s2)cc(N2CCN(CCO)CC2)n1 [Dasatinib]
4. Fc1ccc(C(c2ccc(F)cc2)N2CCN(C/C=C/c3ccccc3)CC2)cc1 [flunarizine]
5. COc1cccc2c(O)c3c(O)c4c(c(O)c3c(O)c12)=C(O[C@H]1C[C@H](N)[C@H](O)[C@H](C)O1)C[C@](O)(C(=O)CO)C=4 [Doxorubicin HCl]

1: -35.2; 2: -34.6; 3: -54.9; 4: -47; 5: 40.1
